# tested on: human TLR8 (Homo sapiens, UniProt Q9NR97)
# Sequence (Q9NR97 27-1041): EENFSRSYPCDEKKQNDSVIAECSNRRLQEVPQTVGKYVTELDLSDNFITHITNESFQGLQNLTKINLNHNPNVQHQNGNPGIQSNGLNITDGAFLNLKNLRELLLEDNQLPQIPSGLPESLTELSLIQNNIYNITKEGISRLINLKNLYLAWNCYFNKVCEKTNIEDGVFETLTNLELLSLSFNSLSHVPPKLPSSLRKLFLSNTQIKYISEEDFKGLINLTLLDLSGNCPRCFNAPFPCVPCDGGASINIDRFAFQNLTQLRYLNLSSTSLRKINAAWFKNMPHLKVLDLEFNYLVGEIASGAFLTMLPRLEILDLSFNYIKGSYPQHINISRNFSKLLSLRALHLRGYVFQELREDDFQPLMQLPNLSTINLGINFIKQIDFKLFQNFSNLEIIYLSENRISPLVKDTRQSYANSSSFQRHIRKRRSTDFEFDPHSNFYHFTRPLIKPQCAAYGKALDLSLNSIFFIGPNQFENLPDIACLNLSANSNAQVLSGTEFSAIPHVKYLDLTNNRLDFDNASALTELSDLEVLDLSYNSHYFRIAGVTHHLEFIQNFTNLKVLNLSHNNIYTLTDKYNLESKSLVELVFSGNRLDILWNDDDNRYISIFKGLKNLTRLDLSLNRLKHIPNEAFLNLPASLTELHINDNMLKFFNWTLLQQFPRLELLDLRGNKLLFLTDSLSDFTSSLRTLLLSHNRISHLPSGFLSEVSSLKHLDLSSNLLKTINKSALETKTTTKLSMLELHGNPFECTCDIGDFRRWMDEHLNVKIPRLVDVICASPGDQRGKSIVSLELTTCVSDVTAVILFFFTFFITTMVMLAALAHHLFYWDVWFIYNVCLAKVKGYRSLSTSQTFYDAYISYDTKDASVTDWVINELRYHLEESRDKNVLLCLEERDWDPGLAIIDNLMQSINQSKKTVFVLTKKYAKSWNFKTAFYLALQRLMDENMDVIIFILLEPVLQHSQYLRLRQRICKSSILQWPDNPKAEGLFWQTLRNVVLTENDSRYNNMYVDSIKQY
# test details: TLR8 inhibition reporter assay (HEK-Blue cells, SEAP reporter, R848 stimulation)
# test conditions: HEK-Blue cells overexpressing human TLR8, SEAP reporter, R848 15.9 μM
# From the text: TLR7/8/9 Inhibition Reporter Assays HEK-Blue™-cells (Invivogen) overexpressing human TLR7, TLR8 or TLR9 receptors were used for screening inhibitors of these receptors using an inducible SEAP (secreted embryonic alkaline phosphatase) reporter gene under the control of the IFN-β minimal promoter fused to five NF-κB and AP-1-binding sites. […]
pIC50: −log10 of the molar value.
The entries below are paired with their reported pIC50.

Illustrative cases are given below, each with its answer.
Cc1ccc(-c2[nH]c3ccc(C4CCN(CC(C)(C)O)CC4)cc3c2C(C)C)c2ncnn12 : > 7.00
CC(C)c1c(-c2cnc3ncccn23)[nH]c2ccc(C3CCNCC3)cc12 : > 7.00
COc1cc(-c2[nH]c3ccc(C4CCNCC4)cc3c2C(C)C)cc2ncnn12 : > 7.00

So what's the measured pIC50 for this one? `CC(C)c1c(-c2cnc3ccnn3c2)[nH]c2ccc(C3CCN(C(=O)[C@@H]4NCC[C@H]4O)CC3)cc12`
< 5.51

The reported measurements were obtained from patent US11739098B2.
